method notes: Cynomolgus monkey tolerability, kidney and liver function markers (Example 34)
reported conditions: cynomolgus monkeys, 35 mg/kg subcutaneously, day 44
property name: ALT (IU/L)

[[record]]
substance = "1198728 (TATTAGAGTATGTGGC; modified gapmer, further chemistry not given here) [compound 1198728]"
experimental_result = 58

[[record]]
substance = "1076453 (GTAATATTGCAATCTG; 3-10-3 cEt gapmer, further chemistry not given here) [compound 1076453]"
experimental_result = 53

[[record]]
substance = "1198623 (CTAAGTAAGGTTTCCC; modified gapmer, further chemistry not given here) [compound 1198623]"
experimental_result = 50

[[record]]
substance = "1198605 (GTAATATTGCAATCTG; modified gapmer, further chemistry not given here) [compound 1198605]"
experimental_result = 40

[[record]]
substance = "1198439 (AGTGTATGTCAGAAGA; sugar, 5-methylcytosine, phosphorothioate modifications, further chemistry not given here) [compound 1198439]"
experimental_result = 40


====

Tested on: Yap1 mRNA
method notes: Antisense inhibition of human Yap1 in A-431 cells by cEt gapmers, single dose (Example 3, RTS36584)
Assay type: cell-based
reported conditions: Table 34; Yap1 mRNA as percent of untreated control; 3-10-3 cEt gapmers targeting SEQ ID NO: 1 and 2; single dose
Procedure: Modified oligonucleotides were designed to target a Yap1 nucleic acid and were tested for their effect on Yap1 mRNA level in vitro. The modified oligonucleotides were tested in a series of experiments that had similar culture conditions. […] After a treatment period of approximately 48 hours, RNA was isolated from the cells and Yap1 mRNA levels were measured by quantitative real-time RTPCR. […] Yap1 mRNA levels were normalized to total RNA content, as measured by RIBOGREEN®. […]
Strand notation (5' to 3'): a small letter for the sugar, then the base; units joined by * are phosphorothioate-linked, units joined directly phosphodiester-linked; [ ] holds rarer units or linkages, { } end groups; capitals alone tell only the bases. k = constrained ethyl (cEt); [5mC] = 5-methylcytosine; d = 2'-deoxy (DNA)
Response key: rule met means YAP1 (% UTC) >= 20 % UTC; rule not met means YAP1 (% UTC) < 20 % UTC.

[[record]]
substance = "1074132 (k[5mC]*kG*kG*d[5mC]*d[5mC]*d[5mC]*d[5mC]*dG*d[5mC]*dA*dT*d[5mC]*d[5mC]*k[5mC]*k[5mC]*k[5mC]; antisense) [compound 1074132]"
cat = "rule met"

[[record]]
substance = "1076276 (k[5mC]*kT*kT*dT*dA*dG*dG*dA*dG*dT*d[5mC]*dA*dG*kA*kA*k[5mC]; antisense) [compound 1076276]"
cat = "rule met"

[[record]]
substance = "1074324 (antisense kG*k[5mC]*kA*dG*dG*dG*d[5mC]*dT*dA*dA*d[5mC]*dT*d[5mC]*k[5mC]*kT*kG) [compound 1074324]"
cat = "rule met"

[[record]]
substance = "1075892 (antisense k[5mC]*kA*k[5mC]*d[5mC]*dA*dA*dT*dA*d[5mC]*d[5mC]*dA*dA*dA*kG*kT*k[5mC]) [compound 1075892]"
cat = "rule met"

[[record]]
substance = "1075540 (kG*k[5mC]*kT*dT*dA*dA*dG*dG*dG*dA*dT*dG*dG*kA*kA*k[5mC]; antisense) [compound 1075540]"
cat = "rule met"

[[record]]
substance = "1075092 (kT*kT*kA*dA*dA*dA*d[5mC]*dA*dA*d[5mC]*dG*dA*dA*kT*kG*kA; antisense) [compound 1075092]"
cat = "rule met"

[[record]]
substance = "1076020 (k[5mC]*k[5mC]*k[5mC]*d[5mC]*dA*dA*d[5mC]*dA*d[5mC]*dT*dA*dA*dT*kA*kG*kG; antisense) [compound 1076020]"
cat = "rule met"

[[record]]
substance = "1075156 (kA*kT*kT*dA*dT*dA*dT*dG*dA*d[5mC]*dT*d[5mC]*dT*kG*k[5mC]*kT; antisense) [compound 1075156]"
cat = "rule met"

[[record]]
substance = "1074676 (antisense k[5mC]*kA*kA*dA*dT*dT*dA*dT*dA*dG*dG*d[5mC]*dA*k[5mC]*kT*k[5mC]) [compound 1074676]"
cat = "rule not met"

[[record]]
substance = "1074868 (kG*kT*kA*d[5mC]*d[5mC]*dT*dA*dA*d[5mC]*dA*dT*dA*dT*kG*kA*kG; antisense) [compound 1074868]"
cat = "rule met"

[[record]]
substance = "1075924 (antisense kA*kT*kT*dT*dA*dA*dT*dA*d[5mC]*dT*d[5mC]*dT*d[5mC]*kT*kG*kG) [compound 1075924]"
cat = "rule met"

[[record]]
substance = "1076212 (k[5mC]*kA*kA*dA*dT*dT*dT*dA*dT*dA*dT*dG*d[5mC]*kT*k[5mC]*k[5mC]; antisense) [compound 1076212]"
cat = "rule not met"

